Below: a set of entries, each annotated with reported melting point.

{"columns": ["compound", "output unit", "melting point"],
 "data": [
  ["CCCCCCCCCCCCCC(O)CC (stereo not drawn)", "°C", 50],
  ["CC(=O)C(C)(C)C", "°C", -52.5],
  ["CCCCCCCCCCCCI", "°C", 0.3],
  ["CCCC#CCCCCCC", "°C", -74.7],
  ["COc1nsnc1NS(=O)(=O)c1ccc(N)cc1", "°C", 150],
  ["Ic1cccc(-c2ccccc2)c1", "°C", 26.5],
  ["Cc1ccc(C)c2c1C(=O)c1ccccc1C2=O", "°C", 140],
  ["CC(Cl)(Cl)C(=O)[O-].[Na+]", "°C", 166]
]}

---

Threshold-based label: melting point under 30 °C gives y, melting point not under 30 °C gives n.

{"columns": ["molecule", "class assignment"],
 "data": [
  ["FC(F)I", "y"],
  ["O=C1c2ccccc2C(=O)C1C(=O)C(c1ccccc1)c1ccccc1", "n"],
  ["Cc1ccc(C)c(Br)c1", "y"],
  ["CC1CCCCC1", "y"],
  ["C(COCCOCC1CO1)OCCOCC1CO1 (stereo unspecified)", "y"],
  ["SCc1ccc(Cl)cc1", "y"],
  ["O=S(O)c1ccccc1", "n"],
  ["O=C1OS(=O)(=O)c2ccccc21", "n"],
  ["CCCC(=O)N(C)C", "y"],
  ["Cc1cccc(O)c1[N+](=O)[O-]", "n"],
  ["CN(C)c1ccc(C(=O)c2ccc(N(C)C)cc2)cc1", "n"],
  ["CC1=C(C)C(=O)c2ccccc2C1=O", "n"],
  ["CN(C)C(=O)Nc1cccc(C(F)(F)F)c1", "n"],
  ["CCC(C)(O)CC", "y"],
  ["C#CCN1C(=O)COc2cc(F)c(N3C(=O)C4=C(CCCC4)C3=O)cc21", "n"],
  ["COc1ccc(C(=O)c2coc(S(N)(=O)=O)c2)cc1", "n"],
  ["C=Cc1ccc2ccccc2c1", "n"],
  ["Cc1ccsc1", "y"],
  ["O=C(OC(Cl)(Cl)Cl)C(Cl)(Cl)Cl", "n"],
  ["CCCCCCCCCCCCCCCCCCCCCCCCC", "n"],
  ["c1ccc2c(c1)ccc1[nH]c3ccccc3c12", "n"]
]}

---

Below: a set of entries, each annotated with reported melting point.
measured parameter: melting point (°C)

{"columns": ["molecule", "assay value"],
 "data": [
  ["CC(C)COC(=O)c1ccc(N)cc1", 64.5],
  ["C=CCC", -185],
  ["Fc1ccc(I)cc1", -27],
  ["CCc1cccnc1", -76.9],
  ["Cc1ccc(N)cc1C", 51],
  ["CN1CCCN=C1/C=C/c1cccs1", 178],
  ["O=C1CCCCC1Cl (stereo not drawn)", 23],
  ["OCc1ccccc1O", 87],
  ["CC(C)(C)c1ccc(O)c(N)c1", 161],
  ["Cc1ccc(O)c(O)c1", 65],
  ["O=[N+]([O-])c1cc(F)c(F)cc1F", -11],
  ["CN(C)c1ccccn1", 182],
  ["FC(F)(F)C(F)(F)C(Cl)(Cl)Cl", -80]
]}

---

Below: a set of entries, each annotated with reported melting point.
measured parameter: melting point (°C)

{"columns": ["molecule", "assay value"],
 "data": [
  ["CCCCCCCCCCl", -39.4],
  ["Oc1ncnc2[nH]ncc12", 350],
  ["c1ccc(-c2nnc(-c3ccccc3)o2)cc1", 139],
  ["O=C(Nc1ccc(Cl)cc1)c1cc(Br)ccc1O", 240],
  ["Cc1cccc2cc3ccc4ccccc4c3cc12", 118],
  ["C1CCC(CCC2CCCCC2)CC1", 11.5],
  ["CCCCCSCCCCC", -51.3],
  ["CC(C(O)c1ccc(O)cc1)N1CCC(Cc2ccccc2)CC1 (configuration not stated)", 114],
  ["FC(I)I", -34.5],
  ["OCCNc1ccccc1", 11],
  ["Cc1cc(NS(=O)(=O)c2ccc(N)cc2)n(-c2ccccc2)n1", 195],
  ["O=c1cc[nH]c2cc(C(F)(F)F)ccc12", 268],
  ["Cc1c(Cl)c(Cl)c(Cl)c(Cl)c1Cl", 225],
  ["c1ccc2c(-c3cccc4ccccc34)cccc2c1", 160],
  ["CN(C)C1CSSC1", 177],
  ["Cc1ccc(O)c(N)c1", 136],
  ["O=[N+]([O-])c1ccc(Nc2ccccc2)cc1", 135],
  ["Cc1ccc([N+](=O)[O-])cc1", 51.6],
  ["Cc1cc(C)c([N+](=O)[O-])c(C)c1[N+](=O)[O-]", 85.3],
  ["FC(F)(F)C(F)(F)C(F)(F)C(F)(F)C(F)(F)C(F)(F)C(F)(F)C(F)(F)C(F)(F)C(F)(F)I", 66],
  ["Cc1ccc(NO)cc1", 96],
  ["ClC1=C(Cl)C(Cl)(Cl)C(Cl)=C1Cl", -9],
  ["CN(C)P(=O)(OP(=O)(N(C)C)N(C)C)N(C)C", 17],
  ["CCCN1C[C@H](CSC)C[C@@H]2c3cccc4[nH]cc(c34)C[C@H]21", 208],
  ["CC(C)C(C)C(C)(C)C (configuration not stated)", -121],
  ["CC(C)(C)c1cc([N+](=O)[O-])c(O)c([N+](=O)[O-])c1", 95],
  ["c1cnc2c(c1)ccc1cccnc12", 117],
  ["c1ccc(-c2nc(-c3ccccc3)c(-c3ccccc3)[nH]2)cc1", 275],
  ["CN(C)c1ccc(C=Cc2ccccc2)cc1", 150],
  ["OCCN1CCOCC1", -1.6],
  ["O[Si](c1ccccc1)(c1ccccc1)c1ccccc1", 155],
  ["C=C(C)Cl", -137],
  ["Cc1ccc(S(=O)(=O)N(Cl)Cl)cc1", 83],
  ["C1CSCCS1", 112],
  ["O=[N+]([O-])c1cc(Cl)ccc1Cl", 56],
  ["N#CCN(CC#N)CC#N", 126],
  ["CN(C)c1ccc(CO)cc1", 69],
  ["O=C1CSC(=S)N1", 170],
  ["CCCOC(=O)CCC", -95.2],
  ["CO[C@@H]1[C@H](OC(=O)/C=C/C=C/C=C/C=C/C(=O)O)CC[C@]2(CO2)[C@H]1[C@@]1(C)O[C@@H]1CC=C(C)C", 194],
  ["C=C(C)Cn1c(N)cc(=O)n(C)c1=O", 175],
  ["Cc1cc(C(C)(C)C)c(C)cc1O", 71.2]
]}

---

measured parameter: melting point (°C)

{"columns": ["given smiles", "measured parameter", "output unit", "assay value"],
 "data": [
  ["O=C1c2ccccc2C(=O)c2c(O)cccc21", "melting point", "°C", 194],
  ["[C-]#[N+]C", "melting point", "°C", -45],
  ["CCc1cccc(C)c1N(COC(C)C)C(=O)CCl", "melting point", "°C", 21.6],
  ["C=CCN", "melting point", "°C", -88.2],
  ["O=S(=O)(O)c1ccc2ccccc2c1", "melting point", "°C", 91],
  ["COCOC", "melting point", "°C", -105],
  ["O=Cc1c(O)ccc2ccccc12", "melting point", "°C", 83],
  ["Clc1ccccc1C(Cl)(Cl)Cl", "melting point", "°C", 29.4],
  ["O=C(CCl)c1ccccc1", "melting point", "°C", 56.5]
]}

---

measured parameter: melting point (°C)

{"columns": ["compound", "output unit", "assay value"],
 "data": [
  ["O=C1Cc2ccccc2O1", "°C", 50],
  ["CCOC(=O)C=CC(=O)O", "°C", 70],
  ["CNC(=O)Oc1cc(C)cc(C)c1", "°C", 99],
  ["C=CCC1(C(C)CC)C(=O)NC(=O)NC1=O (configuration not stated)", "°C", 109],
  ["O[C@@H]1CC[C@H](O)C1", "°C", 35.5],
  ["CCSCC", "°C", -104],
  ["CCCCc1cc2ccccc2c(OCCN(C)C)n1", "°C", 146],
  ["CCCCCCCCC(=O)OCCCC", "°C", -38],
  ["c1ccc(-c2ncc[nH]2)cc1", "°C", 149],
  ["CCCCCCCCCCCCC(=O)OC", "°C", 6.5],
  ["COc1ccc(O[C@@H]2O[C@H](CO)[C@H](O)[C@H](O)[C@H]2O)cc1", "°C", 159],
  ["C=C[C@H]1C[N@@]2CCC1C[C@H]2c1[nH]c2ccccc2c1CCO", "°C", 186],
  ["O=Cc1ccc(Cl)cc1Cl", "°C", 72],
  ["Cl.c1ccc(CC2=NCCN2)cc1", "°C", 175],
  ["C=C(C)C(=O)Cl", "°C", -60],
  ["O=c1[nH]c2ccccc2n1CCCN1CCN(C(c2ccccc2)c2ccccc2)CC1", "°C", 154],
  ["CCCCC(C)=O", "°C", -55.5],
  ["c1ccc(C2=NCCN2)cc1", "°C", 96.5],
  ["CCCCCC(O)CCCCC", "°C", 25],
  ["Clc1cccc(Br)c1Cl", "°C", 60],
  ["Clc1ccc(-c2c(Cl)cc(Cl)c(Cl)c2Cl)cc1Cl", "°C", 107],
  ["C=CC(=O)NC(C)C", "°C", 64]
]}

Entry source: the OPERA property sets (Mansouri et al. 2018)
